Assembled from different publications: IC50 for TACE (Homo sapiens (Human)).

// solved cases for IC50 follow
>  <Compound>
Cc1cc(C)c(N(Cc2ccccc2)S(=O)(=O)c2ccc(OCCCc3ccccc3)cc2)c(C(=O)NO)c1

>  <Value>
664 nM

$$$$
>  <Compound>
Cc1cccn(CC2(c3cccnc3)NC(=O)NC2=O)c1=O (centres unmarked)

>  <Value>
< 100 nM

$$$$
>  <Compound>
CCc1cc(N2CCN(C(=O)CC[C@@]3(C)NC(=O)NC3=O)CC2)cc(OC)c1Cl

>  <Value>
> 100 nM

$$$$
>  <Compound>
O=C1NC(=O)C(Cn2cccc(F)c2=O)(c2ccccc2)N1 (centres unmarked)

>  <Value>
< 100 nM

$$$$

Now turn to the next compound.
Inquiry: Supply measured IC50 of CC#CCOc1ccc([S+]([O-])CC2(C(=O)NO)CCN(C(=O)OC(C)(C)C)CC2)cc1 (centres unmarked) in your reply.
Reply text: 100 nM

====

Note to self: these molecules have IC50 reported for TACE (Homo sapiens (Human), UniProt P78536) in various publications.

These solved cases illustrate the format of a correct answer.
>  <Molecule>
CC#CCOc1ccc(SCC2(C(=O)NO)CCOCC2)cc1

>  <Target system>
TACE (Homo sapiens (Human), UniProt P78536)

>  <IC50>
139 nM

$$$$
>  <Molecule>
CC#CCOc1ccc([S+]([O-])CC2(C(=O)NO)CCNCC2)cc1 (stereo not drawn)

>  <Target system>
TACE (Homo sapiens (Human), UniProt P78536)

>  <IC50>
327 nM

$$$$
>  <Molecule>
Cc1cccn(CC2(c3ccncc3)NC(=O)NC2=O)c1=O (stereo not drawn)

>  <Target system>
TACE (Homo sapiens (Human), UniProt P78536)

>  <IC50>
< 100 nM

$$$$
>  <Molecule>
COc1cc(N2CCN(C(=O)CCC3(C)NC(=O)NC3=O)C[C@@H]2C)cc(F)c1F (stereo partly drawn)

>  <Target system>
TACE (Homo sapiens (Human), UniProt P78536)

>  <IC50>
> 100 nM

$$$$

Would you mind listing IC50 for each of the following molecules?
1. Cc1cccn(CC2(c3ccc(C(C)C)cc3)NC(=O)NC2=O)c1=O (stereo not drawn)
2. COc1cc(N2CCN(C(=O)CC[C@H]3NC(=O)NC3=O)C[C@@H]2C)cc(F)c1F
3. CC#CCOc1ccc(S(=O)(=O)CC2(C(=O)NO)CCN(C(=O)NC(C)(C)C)CC2)cc1
4. Cc1cccn(CC2(c3ccc(-c4nn[nH]n4)cc3)NC(=O)NC2=O)c1=O (stereo not drawn)
5. COc1cc(N2CCN(C(=O)CC[C@@]3(C)NC(=O)NC3=O)C[C@@H]2C)cc(N(C)C)c1Cl

Reply text:
< 100 nM
> 100 nM
19 nM
< 100 nM
> 100 nM

====

TACE (Homo sapiens (Human)) IC50, compiled from various sources.

// known answers, use as guide
>  <Compound>
Cc1cccn(CC2(c3ccc(Oc4cc(F)cc(F)c4)cc3)NC(=O)NC2=O)c1=O (centres unmarked)

>  <IC50>
< 100 nM

$$$$
>  <Compound>
Cc1cccn(CC2(c3ccc(Cl)c(Cl)c3)NC(=O)NC2=O)c1=O (centres unmarked)

>  <IC50>
< 100 nM

$$$$
>  <Compound>
CCCCOc1ccc(S(=O)(=O)C2(C(=O)NO)CCN(Cc3ccc(C)cc3)CC2)cc1

>  <IC50>
508 nM

$$$$
>  <Compound>
COc1ccc(C2(Cn3cccc(C(F)(F)F)c3=O)NC(=O)NC2=O)cc1 (centres unmarked)

>  <IC50>
< 100 nM

$$$$
>  <Compound>
CC#CCOc1ccc(S(=O)(=O)C2(C(=O)NO)CCN(C(=O)OCC)CC2)cc1

>  <IC50>
77 nM

$$$$

Each compound below has a recorded value; state its IC50.
1. COc1ccc2c(c1)CN(S(=O)(=O)CC(CCC1CCCO1)N(O)C=O)CC2 (centres unmarked)
2. COc1cc(N2CCN(C(=O)CC[C@H]3NC(=O)NC3=O)CC2)cc(Cl)c1F
3. COCOc1ccc(C2(Cn3cccc(C)c3=O)NC(=O)NC2=O)cc1 (centres unmarked)

Reply text:
427 nM
> 100 nM
< 100 nM

====

Before we begin, note that these IC50 values for TACE (Homo sapiens (Human)) originate from several publications.

Quick batch: IC50 for everything below.
1. COc1cc(N2CCN(C(=O)CCC3(C)NC(=O)NC3=O)CC2)cc(Cl)c1F (centres unmarked)
2. CC#CCOc1ccc(S(=O)(=O)C2(C(=O)NO)CCN(C(CC)CC)CC2)cc1
3. Cc1cccn(CC2(c3ccc(Oc4cccc(C(F)(F)F)c4)cc3)NC(=O)NC2=O)c1=O (centres unmarked)
4. O=C1NC(=O)C(Cn2cccc(F)c2=O)(c2ccc(F)c(F)c2)N1 (centres unmarked)
5. COc1cc(F)ccc1N1CCN(C(=O)CC[C@@]2(C)NC(=O)NC2=O)CC1

Reply text:
1: > 100 nM; 2: 168 nM; 3: < 100 nM; 4: < 100 nM; 5: > 100 nM

====

Compiled from multiple publications: IC50 readings for TACE (Homo sapiens (Human), UniProt P78536).
// returns 0.0 unless IC50 is strictly below 300 nM, in which case 1.0

>  <Compound>
Cc1cccn(CC2(c3ccc(C(C)(C)C)cc3)NC(=O)NC2=O)c1=O (stereo not drawn)

>  <Group label>
1.0

$$$$
>  <Compound>
CC#CCOc1ccc(S(=O)(=O)CC2(C(=O)NO)CCN(Cc3ccccc3)CC2)cc1

>  <Group label>
1.0

$$$$
>  <Compound>
CC#CCOc1ccc(S(=O)(=O)CC2(C(=O)NO)CCOCC2)cc1

>  <Group label>
1.0

$$$$

Inquiry: Item CC1(C)OC[C@H](C(CS(=O)(=O)N2Cc3ccccc3C2)N(O)C=O)O1 (stereo partly drawn) : IC50 beneath 300 nM, strictly?
Reply text: 0.0

Inquiry: Does the reported IC50 of the following compound sit strictly below 300 nM? COc1cccc(Oc2ccc(C3(Cn4cccc(C)c4=O)NC(=O)NC3=O)cc2)c1 (stereo not drawn)
Reply text: 1.0

Inquiry: Consider the compound CC#CCOc1ccc(S(=O)(=O)C2(C(=O)NO)CCN(Cc3ccc(C#N)cc3)CC2)cc1 . Is its IC50 strictly less than 300 nM?
Reply text: 1.0

Inquiry: Decide: IC50 of CC#CCOc1ccc(S(=O)(=O)C2(C(=O)NO)CCN(Cc3ccc(C)cc3)CC2)cc1 strictly below 300 nM?
Reply text: 1.0

Inquiry: Bench note: check whether CC#CCOc1ccc(S(=O)(=O)C2(C(=O)NO)CCN(Cc3ccc(Cl)cc3)CC2)cc1 shows IC50 below 300 nM
Reply text: 1.0

Inquiry: Report whether reported IC50 is lower than 300 nM (strictly) for Cc1cccn(CC2(c3ccc(Oc4ccccc4F)c(F)c3)NC(=O)NC2=O)c1=O (stereo not drawn)
Reply text: 1.0

Inquiry: Does the reported IC50 of CC#CCOc1ccc(S(=O)(=O)CC2(C(=O)NO)CCN(C(=O)CNCc3ccccc3)CC2)cc1 stay below 300 nM?
Reply text: 1.0

Inquiry: In plain terms, does CC#CCOc1ccc(SCC2(C(=O)NO)CCNCC2)cc1 come in under 300 nM for IC50?
Reply text: 0.0

Inquiry: State whether 300 nM exceeds IC50 recorded for CC#CCOc1cccc(S(=O)(=O)C2(C(=O)NO)CCN(Cc3ccccc3)CC2)c1 .
Reply text: 0.0

Inquiry: Field: below-cutoff. Rule: recorded IC50 strictly less than 300 nM. Subject: O=C1NC(=O)C(Cn2ccccc2=O)(c2cc(F)c(F)c(F)c2)N1 (stereo not drawn)
Reply text: 1.0

====

Collected literature values of pIC50 measured for UniProt P78536.
pIC50: −log10 of the molar value.
Please mark YES if the recorded pIC50 is equal to or greater than 7, and NO if it falls below.

Use the examples below as a reference point.
>  <Molecule>
COc1cc(N2CCN(C(=O)CCC3(C)NC(=O)NC3=O)CC2)c(C)cc1Cl (centres unmarked)

>  <Target system>
UniProt P78536

>  <Group label>
NO

$$$$
>  <Molecule>
Cc1cccn(CC2(c3ccc(Oc4ccc(F)cc4)cc3)NC(=O)NC2=O)c1=O (centres unmarked)

>  <Target system>
UniProt P78536

>  <Group label>
YES

$$$$
>  <Molecule>
CC#CCOc1ccc(S(=O)(=O)CC2(C(=O)NO)CCN(C(=O)c3cccnc3)CC2)cc1

>  <Target system>
UniProt P78536

>  <Group label>
YES

$$$$
>  <Molecule>
O=CN(O)C(CS(=O)(=O)N1CCc2ccc(-c3ccccc3)cc2C1)C1CCCC1 (centres unmarked)

>  <Target system>
UniProt P78536

>  <Group label>
NO

$$$$
>  <Molecule>
O=C1NC(=O)C(Cn2cccc(Br)c2=O)(c2ccccc2)N1 (centres unmarked)

>  <Target system>
UniProt P78536

>  <Group label>
YES

$$$$

Inquiry: Decide: is the reported value of pIC50 for COc1ccc(C2(Cn3cccc(C)c3=O)NC(=O)NC2=O)cc1 (centres unmarked) equal to or greater than 7?
Reply text: YES

Inquiry: # bool: pIC50 of Cc1cccn(CC2(c3ccc(OC(C)C)cc3)NC(=O)NC2=O)c1=O (centres unmarked) >= 7
Reply text: YES

Inquiry: Is reported pIC50 greater than or equal to 7 here: O=CN(O)C(CS(=O)(=O)N1CCc2ccc(-c3ccncc3)cc2C1)C1CCCC1 (centres unmarked)
Reply text: NO

Inquiry: Does O=CN(O)C1(CS(=O)(=O)N2CCc3ccc(Cl)cc3C2)CCCC1 have a reported pIC50 of at least 7?
Reply text: NO
